Give percent viability for every item shown.
Tested on: MCF10A
assay_info: percent viability (nuclei count relative to siNT); higher = more viable cells
test_parameters: 20 nM; 72 h
Reply with just the number (in %).

Exercise: Quickly give me recorded percent viability for AGCCCCCUGGCCCCAAACCC [hsa-miR-4313]
Key: 38.7

Exercise: Quickly give me recorded percent viability for CUCCGGGACGGCUGGGC [hsa-miR-4497]
Key: 67.6

Exercise: Quickly give me recorded percent viability for AAUCAUGUGCAGUGCCAAUAUG [hsa-miR-96-3p]
Key: 28.5

Exercise: Quickly give me recorded percent viability for AUUAAGGACAUUUGUGAUUGAU [hsa-miR-4477b]
Key: 37.8

Exercise: Quickly give me recorded percent viability for GGGUGCGGGCCGGCGGGG [hsa-miR-4466]
Key: 51.3

Exercise: Quickly give me recorded percent viability for UCUGACAUCAGUGAUUCUCCUG [hsa-miR-6719-3p]
Key: 115

* * *

Give 5+ nucleoli phenotype percent effect for every item shown.
Test system: MCF10A
assay_info: 5+ nucleoli phenotype percent effect (relative to siNT 0% and siKIF11 100%); higher = more cells with five or more nucleoli
test_parameters: 20 nM; 72 h
Reply with just the number (in %).

Exercise: Quickly give me recorded 5+ nucleoli phenotype percent effect for AAAAACUGAGACUACUUUUGCA [hsa-miR-548e]
Key: 40.3

Exercise: Quickly give me recorded 5+ nucleoli phenotype percent effect for UGUGGGACUGCAAAUGGGAG [hsa-miR-4648]
Key: -30.5

Exercise: Quickly give me recorded 5+ nucleoli phenotype percent effect for AGACAGUAGUUCUUGCCUGGUU [hsa-miR-4645-3p]
Key: -25

Exercise: Quickly give me recorded 5+ nucleoli phenotype percent effect for UUCCACUGCCACUACCUAAUUU [hsa-miR-6509-3p]
Key: -18.4

Exercise: Quickly give me recorded 5+ nucleoli phenotype percent effect for UCGGGGAGUCUGGGGUCCGGAAU [hsa-miR-6889-5p]
Key: 3.52

Exercise: Quickly give me recorded 5+ nucleoli phenotype percent effect for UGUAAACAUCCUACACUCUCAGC [hsa-miR-30c-5p]
Key: 21.9

Exercise: Quickly give me recorded 5+ nucleoli phenotype percent effect for CUUGGCACCUAGCAAGCACUCA [hsa-miR-1271-5p]
Key: 68.8

Exercise: Quickly give me recorded 5+ nucleoli phenotype percent effect for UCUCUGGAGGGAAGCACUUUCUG [hsa-miR-518c-5p]
Key: -17.1

Exercise: Quickly give me recorded 5+ nucleoli phenotype percent effect for UGUCCUCUGUUCCUCAG [hsa-miR-6852-3p]
Key: 9.01

Exercise: Quickly give me recorded 5+ nucleoli phenotype percent effect for UCUGCAGGGUUUGCUUUGAG [hsa-miR-1205]
Key: -53.7

Exercise: Quickly give me recorded 5+ nucleoli phenotype percent effect for CAGCCCCACAGCCUCAGA [hsa-miR-4323]
Key: -13.4

Exercise: Quickly give me recorded 5+ nucleoli phenotype percent effect for UGUGGGUGGGAAGGACUGGAUU [hsa-miR-6748-5p]
Key: -25.6

Exercise: Quickly give me recorded 5+ nucleoli phenotype percent effect for UGACCCACCCCUCUCCACCAG [hsa-miR-7114-3p]
Key: -4.79

Exercise: Quickly give me recorded 5+ nucleoli phenotype percent effect for CAGGCAGAAGUGGGGCUGACAGG [hsa-miR-6511a-5p]
Key: 3.66

Exercise: Quickly give me recorded 5+ nucleoli phenotype percent effect for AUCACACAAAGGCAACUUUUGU [hsa-miR-377-3p]
Key: -2.87

Exercise: Quickly give me recorded 5+ nucleoli phenotype percent effect for CGCGCCUGCAGGAACUGGUAGA [hsa-miR-6720-3p]
Key: 71.3

Exercise: Quickly give me recorded 5+ nucleoli phenotype percent effect for UAUCGUAUCGUAUUGUAUUGU [hsa-miR-5686]
Key: 39.8

Exercise: Quickly give me recorded 5+ nucleoli phenotype percent effect for UAUGUCCCAUCCCUCCAUCA [hsa-miR-6834-3p]
Key: -28.7

Exercise: Quickly give me recorded 5+ nucleoli phenotype percent effect for UCGGCCUGGGGAGGAGGAAGGG [hsa-miR-7107-5p]
Key: 26.1

Exercise: Quickly give me recorded 5+ nucleoli phenotype percent effect for AAGAGAACUGAAAGUGGAGCCU [hsa-miR-3925-5p]
Key: -8.02

Exercise: Quickly give me recorded 5+ nucleoli phenotype percent effect for UGUCACCCGCUCCUUGCCCAG [hsa-miR-6879-3p]
Key: -23.3

Exercise: Quickly give me recorded 5+ nucleoli phenotype percent effect for UAUCCAGCUUGUUACUAUAUGC [hsa-miR-5586-5p]
Key: 7.77

Exercise: Quickly give me recorded 5+ nucleoli phenotype percent effect for GUGAGACUUCUCUCCCUUCAG [hsa-miR-6864-3p]
Key: -9.96

Exercise: Quickly give me recorded 5+ nucleoli phenotype percent effect for CGGGCGUGGUGGUGGGGGUG [hsa-miR-1268b]
Key: 35.6
